# TESTED SYSTEM: T1, human VTCN1 protein (Homo sapiens, UniProt Q7Z7D3)
# T1 construct: His
# T1 sequence (Q7Z7D3 25-282): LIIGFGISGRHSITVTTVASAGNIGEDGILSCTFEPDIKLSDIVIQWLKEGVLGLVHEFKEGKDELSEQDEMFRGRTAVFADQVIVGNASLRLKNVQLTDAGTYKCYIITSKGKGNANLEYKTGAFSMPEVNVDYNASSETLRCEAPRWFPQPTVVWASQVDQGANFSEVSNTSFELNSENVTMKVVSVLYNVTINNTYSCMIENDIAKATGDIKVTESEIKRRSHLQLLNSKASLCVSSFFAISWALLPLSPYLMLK
# ASSAY COMMENT: Affinity to recombinant VTCN1-his by OCTET Red (Protein A biosensors)
# Assay type: binding
# REPORTED CONDITIONS: Table 5
PROPERTY MEASURED: Kdis (human)

A selection of reference data follows.
MOLECULE: 3G10: mouse anti-human VTCN1 antibody; VH SEQ ID NO: 17, VL SEQ ID NO: 21 (antibody, V domains shown) VH: QIQLKESGPGLVQPSQSLSITCTVSGFSLTSYGVHWVRQSPGKGLEWLGVIWSGGYTDYNSAFISRLSISKDNSKSQVFFKMNSLQADDTAIYYCARDITTIVEGFAYWGQGTLVTVSA VL: IIVMTQSPKSMSMSVGERITLNCKASENVGTYVSWYQQKPEQSPKLLIYGASNRYTGVPDHFTGSGSATDFTLTISSVQAEDLADYHCGQTYSYPFTFGSGTKLEIK
Kdis (human): 1.26 × 10^−2
--
MOLECULE: 10D1: mouse anti-human VTCN1 antibody; VH SEQ ID NO: 57, VL SEQ ID NO: 61 (antibody, V domains shown) VH: QVQLQESGPELVKPGASVKLSCKASGYIFTDYTIHWLKQSPGQGLEWIGWIYPGSGHTHYNDKFKGKATMTADKSSTTAYMQLSSLTSEDSAVFFCARGGESITTVFPLAYWGQGTLVTVSA VL: DIVMSQSPSSLAVSVGEKVTMSCKSSQSLLYSSDQKNYLAWYQQKPGQSPKLLIYWASTWESGVPDRFIGSGSGTDFTLTVSSVKAEDLAVYYCHQYYSYPPTFGAGTKLEIK
Kdis (human): 4.04 × 10^−3
--
MOLECULE: 5A12: mouse anti-human VTCN1 antibody; VH SEQ ID NO: 105, VL SEQ ID NO: 109 (antibody, V domains shown) VH: QVQLQQSGPGLVQPSQSLSITCTVSGFSLTSYGVQWVRQSPGKGLEWLGVIWSSGSTDYNAAFISRLSINKDNSKSQVFFKMNSLQPDDTAIYYCARDITTIVEGFAYWGQGTLVTVSA VL: IIVMTQSPKSMSMSVGERVTLSCKASENVGTYVSWYQQKPEQSPKLLIYGASNRYTGVPDRFTGSGSATDFTLTISSVQAEDLADYHCGQSYSYPFTFGSGTKLEIK
Kdis (human): 1.64 × 10^−3
--
MOLECULE: 6E2: mouse anti-human VTCN1 antibody; VH SEQ ID NO: 33, VL SEQ ID NO: 37 (antibody, V domains shown) VH: QIQLQESGPGLVQPSQSLSITCTVSGFSLTSYGVQWVRQSPGKGLEWLGVIWSGGSTDYNAAFISRLSISKDNSKSQVFFKMNSLQADDTAIYYCARDISTIVEGFAHWGQGTLVTVSS VL: NIVMTQSPKSMSMSVGERVTLSCKASEKVGTYVSWYQQKPEQSPKLLIYGASNRYTGVPDRFTGSGSATDFTLTISSVQAEDLADYHCGQSYRYPFTFGSGTKLEIK
Kdis (human): 7.46 × 10^−3
--
MOLECULE: 6D9: mouse anti-human VTCN1 antibody; VH SEQ ID NO: 113, VL SEQ ID NO: 117; 6D9 represents 6D9-mIgG2a if not otherwise specified (antibody, V domains shown, mouse anti-human VTCN1 antibody; 6D9 represents 6D9-mIgG2a if not otherwise specified) VH: QIQLQQSGPGLVQPSQSLSITCTVSGFSLTSYGVQWIRQSPGKGLEWLGVIWSSGSTDYNAAFLSRLSFSKDNSKSQVFFQMNSLQADDSAIYYCARDVTTIVEGFAHWGQGTLVTVSA VL: NIVMTQSPKSMSMSVGERVTLSCKASEKVGTYVSWYQQKPEQSPKLLIYGASNRYTGVPDRFTGSGSATDFTLTISSVQVEDLADYHCGQTYSYPFTFGSGTKLEIK
Kdis (human): 1.52 × 10^−3

Qu. Any idea what its Kdis (human) is? The molecule is 7F10: mouse anti-human VTCN1 antibody; VH SEQ ID NO: 137, VL SEQ ID NO: 141 (antibody, V domains shown) VH: QVQLQQSGPGLVQPSQSLSITCTVSGFSLTSYGIHWVRQSPGKGLEWLGVIWSSGSTDYNAAFISRLSISKDNSKSQVFFKMNSLQSDDTAIHYCARDITTIAEGFAYWGQGTLVTVSA VL: NIVMTQSPKSMSMSVGERVTLSCKASENVGTYVSWYQQKPEQSPKLLIYGASNRYTGVPDRFTGSGSATDFTLTISSVQAEDLADYHCGQSYSYPFTFGSGTKLEIK
Ans. 5.94 × 10^−3
